Numbers sourced from ChEMBL document CHEMBL1131151.

target-under-test: Phosphodiesterase 4 (Homo sapiens, UniProt P27815+Q08499+Q07343+Q08493)
protocol-text: Concentration to inhibit 50% of Phosphodiesterase 4 (PDE-4) from guinea pig macrophages
Type: protein assay, Cavia porcellus
assay-context: target entry is the homologue from another species
property-label: IC50 (nM)

Record excerpt, results attached:
COc1ccc(C2(Cc3cc[n+]([O-])cc3)C(=O)c3ccccc3C2=O)cc1OC1CCCC1; 50
COc1ccc(C2(Cc3ccc(O)cc3)C(=O)c3ccccc3C2=O)cc1OC1CCCC1; 70
COc1ccc(C2(Cc3ccncc3)C(=O)c3ccc(O)cc3C2=O)cc1OC1CCCC1 (centres undefined); 100
COc1ccc(C2(Cc3c(Cl)cncc3Cl)C(=O)c3ccccc3C2=O)cc1OC1CCCC1; 3000

a: COc1ccc(C2(Cc3ccncc3)C(=O)c3ccc(OCC(=O)O)cc3C2=O)cc1OC1CCCC1 (centres undefined)
b: COc1ccc(C2(Cc3ccccc3)C(=O)c3ccccc3C2=O)cc1OC1CCCC1
c: COc1ccc(C2(Cc3ccncc3)C(=O)c3ccc(OCc4ccccc4)cc3C2=O)cc1OC1CCCC1 (stereo in doubt; (+)-18)
d: COc1ccc(C2(Cc3ccncc3)C(=O)c3ccc(OCc4ccccc4)cc3C2=O)cc1OC1CCCC1 (stereo in doubt; (+)-17)
QUERY: Please order the records by their reported IC50, lowest number first. List the labels, following the order given in the request.
RESULT: d, c, a, b
(d: 6 nM, c: 30 nM, a: 50 nM, b: 500 nM)

###

target-under-test: Phosphodiesterase 4 (Homo sapiens, UniProt P27815+Q08499+Q07343+Q08493)
protocol-text: Binding affinity at Phosphodiesterase 4 by measuring displacement of (+/-)-[3H]- Rolipram to guinea pig brain membranes.
Assay type: tissue-based, Cavia porcellus
assay-context: target entry is the homologue from another species
property-label: Ki (nM)

COc1ccc(C2(Cc3ccncc3)C(=O)c3ccc(OC(=O)N4CCC(N5CCCCC5)CC4)cc3C2=O)cc1OC1CCCC1 (stereo not given); 20
COc1ccc(C2(Cc3ccccc3)C(=O)c3ccccc3C2=O)cc1OC1CCCC1; 2300
COc1ccc(C2(Cc3ccncc3)C(=O)c3ccc(OCc4ccccc4)cc3C2=O)cc1OC1CCCC1 (stereo in doubt; (+)-18); 20
COc1ccc(C2(Cc3ccc(O)cc3)C(=O)c3ccccc3C2=O)cc1OC1CCCC1; 260
COc1ccc(C2(Cc3ccncc3)C(=O)c3ccc(O)cc3C2=O)cc1OC1CCCC1 (stereo not given); 45

a: COc1ccc(C2(Cc3ccncc3)C(=O)c3ccc(OCc4ccncc4)cc3C2=O)cc1OC1CCCC1 (stereo not given)
b: COc1ccc(C2(Cc3ccncc3)C(=O)c3ccc(OCC(=O)O)cc3C2=O)cc1OC1CCCC1 (stereo not given)
QUERY: Lab note: check whether a or b has the lower measured Ki. Your choice should be expressed through its label.
RESULT: b

1: COc1ccc(C2(Cc3ccncc3)C(=O)c3ccccc3C2=O)cc1OC1CCCC1
2: CCOc1ccc2c(c1)C(=O)C(Cc1ccncc1)(c1ccc(OC)c(OC3CCCC3)c1)C2=O (stereo not given)
3: COc1ccc(C2(Cc3ccncc3)Cc3ccccc3C2)cc1OC1CCCC1
QUERY: Please order the records by their reported Ki, lowest number first. List the labels, following the order given in the request.
RESULT: 1, 2, 3
(1: 10 nM, 2: 20 nM, 3: 1600 nM)

###

Test system: PBMC
protocol-text: Inhibition of TNF-alpha release from LPS-stimulated human mononuclear cells
Type: functional, cell-based
property-label: pIC50
# reply with the number alone; pIC50 is -log10 of concentration in mol/L

Record excerpt, results attached:
COc1ccc(C2(Cc3ccncc3)C(=O)c3ccc(OCc4ccccc4)cc3C2=O)cc1OC1CCCC1 (single isomer, unassigned; (+)); 6.70
COc1ccc(C2(Cc3ccncc3)C(=O)c3ccccc3C2=O)cc1OC1CCCC1; 6.70

# context switch: different compound, same pIC50
QUERY: Record COc1ccc(C2CNC(=O)C2)cc1OC1CCCC1 (stereo not drawn) : what is its pIC50 with PBMC?
RESULT: 6.30

###

target-under-test: Phosphodiesterase 4 (Homo sapiens, UniProt P27815+Q08499+Q07343+Q08493)
protocol-text: Binding affinity at Phosphodiesterase 4 by measuring displacement of (+/-)-[3H]- Rolipram to guinea pig brain membranes.
Assay type: tissue-based, Cavia porcellus
assay-context: target entry is the homologue from another species
property-label: Ki (nM)

Record excerpt, results attached:
COc1ccc(C2(Cc3ccncc3)Cc3cc(OCc4ccccc4)ccc3C2=O)cc1OC1CCCC1 (stereo not drawn); 60
COc1ccc(C2(Cc3cc[n+]([O-])cc3)C(=O)c3ccccc3C2=O)cc1OC1CCCC1; 20
COc1ccc(C2(Cc3ccncc3)C(=O)c3ccc(OCc4ccccc4)cc3C2=O)cc1OC1CCCC1 (single isomer, unassigned; (+)); 20

P: COc1ccc(C2(Cc3ccncc3)C(=O)c3ccc(OCc4ccccc4)cc3C2=O)cc1OC1CCCC1 (stereo in doubt; (+)-17)
Q: COc1ccc(C2(Cc3ccncc3)C(=O)c3ccc(OC4CCN(C)CC4)cc3C2=O)cc1OC1CCCC1 (stereo not drawn)
R: COc1ccc(C2(Cc3c(Cl)cncc3Cl)C(=O)c3ccccc3C2=O)cc1OC1CCCC1
QUERY: Please order the records by their reported Ki, lowest number first. List the labels, following the order given in the request.
RESULT: P, Q, R
(P: 20 nM, Q: 60 nM, R: 1700 nM)
